- measurement target: T1, Sin Nombre hantavirus nucleocapsid protein (N) (Sin Nombre hantavirus, UniProt Q89462 SEQ:1-428)
- T1 sequence: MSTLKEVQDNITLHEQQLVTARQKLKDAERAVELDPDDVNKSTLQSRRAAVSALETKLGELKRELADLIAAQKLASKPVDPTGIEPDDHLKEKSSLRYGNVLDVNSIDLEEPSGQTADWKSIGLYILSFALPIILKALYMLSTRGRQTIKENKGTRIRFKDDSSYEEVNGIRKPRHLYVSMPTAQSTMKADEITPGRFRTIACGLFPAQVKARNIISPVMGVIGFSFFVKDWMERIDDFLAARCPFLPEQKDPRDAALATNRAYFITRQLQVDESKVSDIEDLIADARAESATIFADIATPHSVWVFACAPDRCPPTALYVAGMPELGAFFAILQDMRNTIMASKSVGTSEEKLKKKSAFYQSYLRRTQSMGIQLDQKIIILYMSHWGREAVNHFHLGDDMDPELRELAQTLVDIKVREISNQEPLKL
- method notes: filter
- run conditions: tags: C-terminal octahistidine tag, expressed in E. coli; label: 32P-CTP
pKd: −log10 of the molar value.

{"binder": "GUCUCC (ssRNA, 5' m7G cap) [m7GUCUCC capped hexamer]", "pKd": 6.90}
